- Test system: Plasmodium falciparum
- Protocol description: Primary screen in NF54 nanoGlo assay, in single point, at 2uM, 72h
- Format: functional, Erythrocyte
- Condition notes: timepoint 72 hour
Out of some 150,000 compounds screened, about 540 (0.36%) showed an effect of 50% or more. For the sample, strong results were picked, then their nearest neighbours and some compounds at random.
Measure: Z score
I'd appreciate a reply containing only the number, no unit.

Cn1ccc(NS(=O)(=O)c2cccc3c2N=S=N3)n1 ... 0.06

Look up Z score of `O=C(Nc1cc(C(F)(F)F)ccc1N1CCOCC1)c1nn(-c2ccccc2)c(=O)c2ccccc12` and report it.
2.63

Look up Z score of `Cn1nccc1[C@@H](O)CNC(=O)C1(c2cccnc2)CC2(CCC2)C1` and report it.
1.59

Look up Z score of `CC(C)ONC(=O)CCc1cccc(O)c1` and report it.
1.21

Look up Z score of `CN(CCO)C[C@@H]1CN(C(=O)C2(c3ccccc3)CCCC2)C[C@@H]1CO` and report it.
2.7

Look up Z score of `Cc1cc(N(C)C(=O)c2nccn3ccnc23)ccc1Br` and report it.
-3.49

* * *

- Tested on: Plasmodium falciparum
- Protocol description: Primary screen in NF54 nanoGlo assay, in single point, at 2uM, 72h
- Type: functional, Erythrocyte
- Condition notes: timepoint 72 hour
The campaign covered roughly 150,000 compounds. About 540 (0.36%) showed an effect of 50% or more. The sample as a whole holds a higher share of strong results than the screen did.
Measure: % Inhibition
Report as: number unit

Look up % Inhibition of `CCN1C(=O)c2ccccc2N2C(=O)CC[C@@]12C(=O)Nc1nccs1` and report it.
8%

* * *

- System: Plasmodium falciparum
- Protocol description: Primary screen in NF54 nanoGlo assay, in single point, at 2uM, 72h
- Assay type: functional, Erythrocyte
- Condition notes: timepoint 72 hour
In all, about 150,000 compounds went through this assay and about 540 (0.36%) showed an effect of 50% or more. The entries come from a sample that favours strong results as a whole.
Measure: Z score
I'd appreciate a reply containing only the number, no unit.

Some compounds with known Z score results, for comparison:
COCCC(CNC(C)c1nccnc1C)NC(=O)OC(C)(C)C (stereo unspecified) ... 1.51
O=C(O)c1ccc2c(NC3CCCC3)ncnc2c1 ... 0.71
CCCNS(=O)(=O)c1ccc(C(=O)N2C[C@H]3CC[C@@H](C2)N(C)C3)cc1 ... 1.2
CCOc1cc(CNc2cccc3ccccc23)cc(Br)c1OCC(=O)NC(C)(C)C ... -9.96

Look up Z score of `CCCC(=O)N1CCN(c2cc(-n3cnc(C)c3C)ncn2)CC1` and report it.
1.96

Look up Z score of `CCOCCCNC(=O)C1CCN(C(=O)c2cc3oc(C)cc3n2Cc2c(F)cccc2Cl)CC1` and report it.
0.06

Look up Z score of `Cc1csc(Oc2ccc(N)cc2F)n1` and report it.
1.47

* * *

- System: Plasmodium falciparum
- Protocol description: Primary screen in NF54 nanoGlo assay, in single point, at 2uM, 72h
- Assay type: functional, Erythrocyte
- Condition notes: timepoint 72 hour
Screen size: about 150,000 compounds; about 540 (0.36%) showed an effect of 50% or more. The entries come from a sample that favours strong results as a whole.
Listing: % Inhibition of selected compounds
Give a bare numeral; the unit % is implied.

Cc1cccc(NCc2ccc(N3N=C(c4ccccc4)C[C@H]3c3ccccc3)cc2)c1 ... -1
COc1cc(C)c2[nH]c3c(c(=O)c2c1)CN(CC(=O)Nc1ccc2c(c1)OCO2)CC3 ... 44
COc1cccc(C(=O)N2CCN(C(=O)Cn3cc(Cl)cn3)CC2)c1 ... -4
COc1cc(C)c2[nH]c3c(c(=O)c2c1)CN(CC(=O)Nc1ccc(F)c(C)c1)CC3 ... 43

Look up % Inhibition of `COCCN1CC[C@H](CN(C)S(=O)(=O)Cc2ccc(Cl)cc2)C1` and report it.
-6

Data credit: ChEMBL document CHEMBL4888484
